pIC50 by entry:
Target: hERG potassium channel (Homo sapiens)
Sequence (Q12809 whole entry): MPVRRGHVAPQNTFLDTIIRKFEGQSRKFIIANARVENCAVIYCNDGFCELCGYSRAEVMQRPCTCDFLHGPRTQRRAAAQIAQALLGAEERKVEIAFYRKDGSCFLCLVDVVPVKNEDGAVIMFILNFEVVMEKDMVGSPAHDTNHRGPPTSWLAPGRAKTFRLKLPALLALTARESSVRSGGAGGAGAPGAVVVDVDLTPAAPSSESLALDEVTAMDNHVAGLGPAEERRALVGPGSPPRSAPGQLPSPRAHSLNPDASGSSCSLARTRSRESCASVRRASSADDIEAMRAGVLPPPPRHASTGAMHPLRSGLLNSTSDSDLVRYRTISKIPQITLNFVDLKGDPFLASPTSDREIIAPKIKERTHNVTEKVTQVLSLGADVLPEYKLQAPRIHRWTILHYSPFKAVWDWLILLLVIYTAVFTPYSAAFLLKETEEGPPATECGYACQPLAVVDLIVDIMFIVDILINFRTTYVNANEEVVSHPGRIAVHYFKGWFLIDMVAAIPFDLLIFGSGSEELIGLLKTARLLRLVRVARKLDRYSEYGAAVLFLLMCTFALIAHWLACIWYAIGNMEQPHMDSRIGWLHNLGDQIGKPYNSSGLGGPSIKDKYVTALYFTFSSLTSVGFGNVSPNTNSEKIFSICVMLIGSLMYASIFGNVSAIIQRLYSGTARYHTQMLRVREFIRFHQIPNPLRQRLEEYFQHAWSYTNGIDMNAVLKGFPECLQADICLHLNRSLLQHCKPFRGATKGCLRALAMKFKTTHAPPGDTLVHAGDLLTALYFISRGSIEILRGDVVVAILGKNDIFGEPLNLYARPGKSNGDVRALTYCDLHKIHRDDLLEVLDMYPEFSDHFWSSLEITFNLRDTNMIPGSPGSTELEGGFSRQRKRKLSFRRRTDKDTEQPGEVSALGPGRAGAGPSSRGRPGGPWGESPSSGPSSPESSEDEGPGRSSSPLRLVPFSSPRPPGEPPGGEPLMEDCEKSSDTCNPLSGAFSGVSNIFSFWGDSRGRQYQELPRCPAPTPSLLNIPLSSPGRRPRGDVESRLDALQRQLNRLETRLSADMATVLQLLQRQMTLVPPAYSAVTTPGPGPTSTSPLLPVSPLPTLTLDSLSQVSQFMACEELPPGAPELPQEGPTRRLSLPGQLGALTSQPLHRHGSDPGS
Test: cell-based
pIC50: −log10 of the molar value.

Use these answered entries as a reference point.
[
  {
    "smilesData": "COCCNc1cc(N)nc2cc(-c3ccn[nH]3)sc12",
    "pIC50": "< 5.00"
  },
  {
    "smilesData": "Nc1cc(NCC2CCOCC2)c2sc(-c3ccn[nH]3)cc2n1",
    "pIC50": "< 5.00"
  },
  {
    "smilesData": "Nc1cc(NCC(F)F)c2sc(-c3ccn[nH]3)cc2n1",
    "pIC50": "< 5.00"
  },
  {
    "smilesData": "Nc1cc(N[C@@H]2CC[C@@H](O)C2)c2sc(-c3ccn[nH]3)cc2n1",
    "pIC50": "< 5.00"
  }
]

## Task Would you mind telling me what pIC50 value was observed for CC(C)(CO)CNc1cc(N)nc2cc(-c3ccn[nH]3)sc12 ?
## Result < 5.00

Ref: patent US20220056043A1
